Where these numbers come from: patent US20240279207A1

Test system: ESR1 transcription in MVLN cells
method-summary: MVLN reporter assay: repression of ESR1 transcription (luciferase signal)
Assay type: cell-based
condition-info: Homo sapiens, MVLN, 24 h, luciferase signal after 24 h, read-out: MVLN reporter assay, IC50 [M] (arithmetic mean)
measure-name: IC50 (M)

compound	assayed-target	data-value
CC(C)c1ccc(OCC2CC2(F)F)c(S(=O)(=O)NC(=O)c2cc3c(F)cc(N4CCC4)cc3o2)c1 (racemic)	ESR1 transcription in MVLN cells	1.83e-08
COCc1cccc(S(=O)(=O)NC(=O)c2cc3c(F)cc(N4CCC4)cc3o2)c1	ESR1 transcription in MVLN cells	1.29e-06

[1] CC(C)(C)c1ccc(OCc2ccccc2)c(S(=O)(=O)NC(=O)c2cc3c(F)cc(N4CCC4)cc3o2)c1
[2] COc1cccnc1S(=O)(=O)NC(=O)c1cc2c(F)cc(N3CCC3)cc2o1
[3] O=C(NS(=O)(=O)c1cccc2nsnc12)c1cc2c(F)cc(N3CCC3)cc2o1
// ranking: key=IC50, reverse=True Record the ranking as a list of labels in the requested order. 2, 3, 1
(2: 1.1e-05 M, 3: 6.47e-07 M, 1: 2.76e-08 M)

* * *

assayed-target: Recombinant human His-tagged Kat6a protein (amino acids 194-810) (Homo sapiens, UniProt Q92794)
Construct: Kat6a protein (amino acids 194-810); His
Sequence (Q92794 194-810): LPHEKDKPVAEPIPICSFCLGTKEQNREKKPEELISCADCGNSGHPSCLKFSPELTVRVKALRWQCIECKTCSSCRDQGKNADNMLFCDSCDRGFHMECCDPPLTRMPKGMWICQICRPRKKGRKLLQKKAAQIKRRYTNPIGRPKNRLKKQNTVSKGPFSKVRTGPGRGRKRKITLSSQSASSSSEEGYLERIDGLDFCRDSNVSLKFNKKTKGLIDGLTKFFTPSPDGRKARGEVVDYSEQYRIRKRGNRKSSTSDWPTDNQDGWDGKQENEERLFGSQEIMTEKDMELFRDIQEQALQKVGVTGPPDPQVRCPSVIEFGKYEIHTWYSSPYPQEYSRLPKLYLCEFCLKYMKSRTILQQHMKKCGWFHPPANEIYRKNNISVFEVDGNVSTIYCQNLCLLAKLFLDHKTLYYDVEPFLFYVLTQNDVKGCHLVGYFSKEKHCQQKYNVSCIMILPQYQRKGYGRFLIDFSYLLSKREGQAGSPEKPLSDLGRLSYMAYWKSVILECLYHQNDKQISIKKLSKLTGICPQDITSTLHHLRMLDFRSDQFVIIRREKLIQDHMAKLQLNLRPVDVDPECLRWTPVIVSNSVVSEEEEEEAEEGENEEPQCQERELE
method-summary: Kat6a activity assay (TR-FRET, acetylation of Histone-H4-derived peptide)
condition-info: 60 mins at 22° C., 220 nM H4 peptide, 600 nM Acetyl Coenzyme A, read-out: KAT6A - DPF/HAT domain IC50 [mol/l] (arithmetic mean)
measure-name: IC50 (µM)

Please review the following examples before continuing.
compound	IC50 [µM]
CC(C)c1cccnc1S(=O)(=O)NC(=O)c1cc2c(F)cc(N3CCC3)cc2o1 [Example 79]	0.00958
O=C(NS(=O)(=O)c1c(F)cccc1OC1CCC1)c1cc2c(F)cc(N3CCC3)cc2o1 [Example 16]	0.0435
COC(=O)Nc1cccc2c(S(=O)(=O)NC(=O)c3cc4c(F)cc(N5CCC5)cc4o3)cccc12 [Example 192]	2

[1] O=C(NS(=O)(=O)c1ccccc1OC1CC1)c1cc2c(F)cc(N3CCC3)cc2o1 [Example 131]
[2] CSc1nc2ccccn2c1S(=O)(=O)NC(=O)c1cc2c(F)cc(N3CCC3)cc2o1 [Example 149]
[3] COc1ccc(N2CCN(C)CC2)cc1S(=O)(=O)NC(=O)c1cc2c(F)cc(N3CCC3)cc2o1 [Example 202]
[4] O=C(NS(=O)(=O)c1c(Cl)ccc2c1OC(F)(F)O2)c1cc2c(F)cc(N3CCC3)cc2o1 [Example 142]
[5] COc1ccc(C(C)(C)C)cc1S(=O)(=O)NC(=O)c1cc2c(F)cc(N3CC(F)C3)cc2o1 [Example 150]
Hey, quick one: sort these by IC50, top value first please. Form entry: ranked labels (order as requested). 2, 4, 3, 1, 5

[1] COCc1cccc(S(=O)(=O)NC(=O)c2cc3c(F)cc(N4CCC4)cc3o2)c1 [Example 48]
[2] O=C(NS(=O)(=O)c1cccc2c1OCCC2)c1cc2c(F)cc(N3CCC3)cc2o1 [Example 12]
[3] Cc1ccc2cccnc2c1S(=O)(=O)NC(=O)c1cc2c(F)cc(N3CCC3)cc2o1 [Example 173]
[4] CC(C)Oc1cccc(C(F)(F)F)c1S(=O)(=O)NC(=O)c1cc2c(F)cc(N3CCC3)cc2o1 [Example 28]
// ranking: key=IC50, reverse=True Reply with the item labels sorted in the order that was asked for. 1, 4, 3, 2
(1: 0.281 µM, 4: 0.136 µM, 3: 0.0657 µM, 2: 0.0427 µM)

[1] CCOc1ccc(F)cc1S(=O)(=O)NC(=O)c1cc2c(F)cc(N3CCC3)cc2o1 [Example 210]
[2] CC(C)Oc1ccc(Br)cc1S(=O)(=O)NC(=O)c1cc2c(F)cc(N3CCC3)cc2o1 [Example 170]
Task for the reader: decide whether 1 or 2 has the larger IC50. State the label of the item chosen. 1
(1: 0.0526 µM, 2: 0.0105 µM)

* * *

Test system: ESR1 transcription in MVLN cells
method-summary: MVLN reporter assay: repression of ESR1 transcription (luciferase signal)
Format: cell-based
condition-info: Homo sapiens, MVLN, 24 h, luciferase signal after 24 h, read-out: MVLN reporter assay, IC50 [M] (arithmetic mean)
measure-name: IC50 (M)

[I] CCCOc1cccc(OC(C)(C)C)c1S(=O)(=O)NC(=O)c1cc2c(F)cc(N3CCC3)cc2o1
[II] CCCOc1cccc(CCC)c1S(=O)(=O)NC(=O)c1cc2c(F)cc(N3CCC3)cc2o1
[III] CC1Cc2cccc(S(=O)(=O)NC(=O)c3cc4c(F)cc(N5CCC5)cc4o3)c2O1 (stereo not drawn)
[IV] COc1ccc2snnc2c1S(=O)(=O)NC(=O)c1cc2c(F)cc(N3CCC3)cc2o1
Order the above molecules by increasing IC50. Your answer should be the labels, listed in the requested order. III, I, II, IV
(III: 1.92e-07 M, I: 2.85e-07 M, II: 5.02e-07 M, IV: 8.48e-07 M)

* * *

Tested on: ESR1 transcription in MVLN cells
method-summary: MVLN reporter assay: repression of ESR1 transcription (luciferase signal)
Assay type: cell-based
condition-info: Homo sapiens, MVLN, 24 h, luciferase signal after 24 h, read-out: MVLN reporter assay, IC50 [M] (arithmetic mean)
Readings of IC50 for the listed molecules

Before answering, review these 2 worked examples.
molecule	IC50
CCOc1ccccc1S(=O)(=O)NC(=O)c1cc2c(F)cc(N3CCC3CNC(=O)OC)cc2o1 (racemic)	> 2e-05 M
CN(C)C(=O)c1cccnc1S(=O)(=O)NC(=O)c1cc2c(F)cc(N3CCC3)cc2o1	> 2e-05 M

Quickly give me recorded IC50 for COC(=O)Nc1cccc2c(S(=O)(=O)NC(=O)c3cc4c(F)cc(N5CCC5)cc4o3)cccc12 > 2e-05 M

* * *

assayed-target: Recombinant human His-tagged Kat6a protein (amino acids 194-810) (Homo sapiens)
Construct: Kat6a protein (amino acids 194-810); His
method-summary: Kat6a activity assay (TR-FRET, acetylation of Histone-H4-derived peptide)
condition-info: 60 mins at 22° C., 220 nM H4 peptide, 600 nM Acetyl Coenzyme A, read-out: KAT6A - DPF/HAT domain IC50 [mol/l] (arithmetic mean)
measure-name: IC50 (nM)

Here are 2 compounds together with their reported answers.
compound	IC50, nM
CC(=O)c1ccc(Cl)c(S(=O)(=O)NC(=O)c2cc3c(F)cc(N4CCC4)cc3o2)c1	272
CCN(CC)C(=O)Oc1ccccc1S(=O)(=O)NC(=O)c1cc2c(F)cc(N3CCC3)cc2o1	111

[1] CC(Oc1ccccc1S(=O)(=O)NC(=O)c1cc2c(F)cc(N3CCC3)cc2o1)C(F)(F)F (single isomer, unassigned) [Example 15]
[2] CC1CCN1c1cc(F)c2cc(C(=O)NS(=O)(=O)c3ccccc3)oc2c1 (racemic)
Kindly identify which of 1 and 2 has the larger recorded IC50 value. Your answer should be the label attached to the chosen record. 2
